Biological target: T1, human TNFR2 on the cell membrane (human, UniProt P20333 23-461)
T1 construct: whole, on cells; One molecule for all cell formats; also called TNFR2-CHO cells; CHO-TNFR2
T1 sequence (looked up): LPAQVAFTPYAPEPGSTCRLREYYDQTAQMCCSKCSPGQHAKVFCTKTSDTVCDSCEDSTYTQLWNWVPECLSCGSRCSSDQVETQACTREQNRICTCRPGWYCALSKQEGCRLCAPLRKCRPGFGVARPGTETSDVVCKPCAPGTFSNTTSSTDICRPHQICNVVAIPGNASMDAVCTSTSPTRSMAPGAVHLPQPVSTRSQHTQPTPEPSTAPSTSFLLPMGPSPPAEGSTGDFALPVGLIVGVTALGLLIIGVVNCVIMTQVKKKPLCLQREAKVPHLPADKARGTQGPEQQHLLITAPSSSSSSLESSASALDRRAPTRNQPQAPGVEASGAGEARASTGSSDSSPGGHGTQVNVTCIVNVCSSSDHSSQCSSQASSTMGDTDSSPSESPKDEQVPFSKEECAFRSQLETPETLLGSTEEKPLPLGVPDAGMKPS
Experiment: flow cytometry, TNFR2-CHO cells
measured_attribute: EC50 (µg/mL)
Could you give me the number in µg/mL? Just the number is fine.

anti-human TNFR2 mouse monoclonal antibody 7F2 (antibody, V domains shown) VH: QVTLKESGPGILQPSQTLSLTCSFSGFSLNTFGLGVGWIRQPSGKGLEWLTHIWWNDDKYYNPALKSRLTISRDTSENLVFLKIANVDTADTATYYCARIEGLRRFDYWGQGTTLTVSS VL: DIQMTQSPSSLSASLGGKVTITCKTSQDINKFIAWYQHKPGKGPRLLIHYTSTLQPGIPSRFSGSGSGRDYSFSISDLEPEDIATYYCLQYANLWAFGGGTKLEIK	0.364

// anti-human TNFR2 mouse monoclonal antibody 16D2 (antibody, V domains shown) VH: EVQLQQSEPELVKPGASVKIPCKASGYTFTDYNMDWVKQSHGKSLEWIGDINPNNGVTIYNQKFKGKATLTVDKSSSTAYMELRSLTSEDTAVYYCVILEYFDYWGQGTTLTVSS VL: DIVMTQSTSSMSVSLGDTVSITCHASQGISSNIGWLQQKPGKSFKGLIYHGTKLEDGVPSRFSGSGSGADYSLTISSLESEDFADYYCVQYAQFPRTFGGGTKLEIK : EC50 value = 5.71
